System: NCI-H146 human small cell lung carcinoma cells
Experiment: Cellular efficacy in human tumor cell line (MTS viability assay)
Type: cell-based
Settings: NCI-H146; 10% human serum, 48 hours; Table 3; read-out: NCI-H146 Cellular Efficacy H146 EC50
pEC50: −log10 of the molar value.
observation-type: pEC50

[[record]]
compound = "O=C(NS(=O)(=O)c1ccc(N[C@H](CCN2C[C@@H]3C[C@H]2CO3)CSc2ccccc2)c(S(=O)(=O)C(F)(F)Cl)c1)c1ccc(N2CCN(CC3=C(c4ccc(Cl)cc4)CCCC3)CC2)cc1 [Example 6]"
recorded_number = 8.00


[I] O=C(NS(=O)(=O)c1ccc(N[C@H](CCN2CC3CC2CO3)CSc2ccccc2)c(S(=O)(=O)C(F)(F)F)c1)c1ccc(N2CCN(CC3=C(c4ccc(Cl)cc4)CCCC3)CC2)cc1 (stereo partly drawn) [Example 9]
[II] CN(C)CC[C@H](CSc1ccccc1)Nc1ccc(S(=O)(=O)NC(=O)c2ccc(N3CCN(CC4=C(c5ccc(Cl)cc5)CCCC4)CC3)cc2)cc1C(F)(F)F [H, reference compound]
Which value of pEC50 is numerically greater: that of I or that of II ? State your choice using its label.
I

###

Assay: Pharmacokinetic evaluation in rat
Type: in vivo
Conditions: male, Sprague-Dawley, plasma, 5 mg/kg, oral, Table 3, read-out: Pharmacokinetic peak plasma concentration (rat) Cmax
observation-type: Cmax (nM)

[P] O=C(NS(=O)(=O)c1ccc(N[C@H](CCN2CCOCC2)CSc2ccccc2)c(S(=O)(=O)C(F)(F)Cl)c1)c1ccc(N2CCN(CC3=C(c4ccc(Cl)cc4)CCCC3)CC2)cc1
[Q] CN(C)CC[C@H](CSc1ccccc1)Nc1ccc(S(=O)(=O)NC(=O)c2ccc(N3CCN(CC4=C(c5ccc(Cl)cc5)CCCC4)CC3)cc2)cc1S(=O)(=O)C(F)(F)F
Which value of Cmax is numerically greater: that of P or that of Q ? State your choice using its label.
P
(P: 385 nM, Q: 97 nM)

###

Tested on: NCI-H146 human small cell lung carcinoma cells
Experiment: Cellular efficacy in human tumor cell line (MTS viability assay)
Type: cell-based
Conditions: NCI-H146; 10% human serum, 48 hours; Table 1; read-out: NCI-H146 Cellular Efficacy EC50
observation-type: EC50 (nM)

[[record]]
smiles_input = "O=C(NS(=O)(=O)c1ccc(N[C@H](CCN2CCOCC2)CSc2ccccc2)c(S(=O)(=O)C(F)(F)Cl)c1)c1ccc(N2CCN(CC3=C(c4ccc(Cl)cc4)CCCC3)CC2)cc1"
observation_type = "EC50"
recorded_number = 28.8

[[record]]
smiles_input = "CC(C)N(C)CC[C@H](CSc1ccccc1)Nc1ccc(S(=O)(=O)NC(=O)c2ccc(N3CCN(CC4=C(c5ccc(Cl)cc5)CC(C)(C)CC4)CC3)cc2)cc1S(=O)(=O)C(F)(F)Cl"
observation_type = "EC50"
recorded_number = 38.8

[[record]]
smiles_input = "O=C(NS(=O)(=O)c1ccc(N[C@H](CCN2C3CCC2CC3)CSc2ccccc2)c(S(=O)(=O)C(F)(F)F)c1)c1ccc(N2CCN(CC3=C(c4ccc(Cl)cc4)CCCC3)CC2)cc1"
observation_type = "EC50"
recorded_number = 21.2


[P] CN(C)CC[C@H](CSc1ccccc1)Nc1ccc(S(=O)(=O)NC(=O)c2ccc(N3CCN(CC4=C(c5ccc(Cl)cc5)CCCC4)CC3)cc2)cc1S(=O)(=O)C(F)(F)Cl
[Q] O=C(NS(=O)(=O)c1ccc(N[C@H](CCN2CCOCC2)CSc2ccccc2)c(S(=O)(=O)C(F)(F)F)c1)c1ccc(N2CCN(CC3=C(c4ccc(Cl)cc4)CCOC3)CC2)cc1
Which value of EC50 is numerically greater: that of P or that of Q ? State your choice using its label.
Q
(Q: 64.3 nM, P: 15.4 nM)
